Each item that follows carries a reported pIC50.
Target: Cathepsin K (Homo sapiens)
Assay: Inhibition of humanized-rabbit Cathepsin K
Interpret pIC50 as the negative base-10 log of the concentration measured in mol/L.

Look over these answered cases.
CS(=O)(=O)N1CC(c2ccc(-c3cn(CC(F)(F)F)nc3[C@@H]3CCC(F)(F)C[C@H]3C(=O)NC3(C#N)CC3)cc2)C1 ... 9.22
N#CC1(NC(=O)[C@@H]2CC(F)(F)CC[C@H]2c2nn(CC(F)(F)F)cc2-c2ccc(-c3ncco3)cc2)CC1 ... 9.00
N#CC1(NC(=O)[C@@H]2CC(F)(F)CC[C@H]2c2nn(-c3ccc(F)cc3)cc2-c2ccc(N3CCS(=O)(=O)CC3)cc2)CC1 ... 9.30
N#CC1(NC(=O)[C@@H]2CC(Cl)(Cl)CC[C@H]2c2nn(CC(F)(F)F)cc2-c2ccc(N3CCS(=O)(=O)CC3)cc2)CC1 ... 9.30

Turning now to a further compound:
Value of pIC50 reported for the compound N#CC1(NC(=O)[C@@H]2CC(Cl)(Cl)CC[C@H]2c2nn(CC(F)(F)F)cc2-c2ccc(C(=O)N3CCOCC3)cc2)CC1 is 9.00

---

Assay: Plasma protein binding in dog assessed as unbound fraction at 15 mg/kg, po for 4 days
Format: ADME, organism-based, Canis lupus familiaris
Conditions: time 4 day
Measurement Label: fraction unbound at 96 h
Please state the value as a number alone, without comment.

Value of fraction unbound at 96 h reported for the molecule N#CC1(NC(=O)[C@@H]2CCCC[C@H]2c2oc(-c3ccc(F)cc3)nc2-c2ccc(N3CCS(=O)(=O)CC3)cc2)CC1 is 0.047

---

Target: Cathepsin K (Homo sapiens)
Experiment: Inhibition of human Cathepsin K
Sequence (P43235 whole entry): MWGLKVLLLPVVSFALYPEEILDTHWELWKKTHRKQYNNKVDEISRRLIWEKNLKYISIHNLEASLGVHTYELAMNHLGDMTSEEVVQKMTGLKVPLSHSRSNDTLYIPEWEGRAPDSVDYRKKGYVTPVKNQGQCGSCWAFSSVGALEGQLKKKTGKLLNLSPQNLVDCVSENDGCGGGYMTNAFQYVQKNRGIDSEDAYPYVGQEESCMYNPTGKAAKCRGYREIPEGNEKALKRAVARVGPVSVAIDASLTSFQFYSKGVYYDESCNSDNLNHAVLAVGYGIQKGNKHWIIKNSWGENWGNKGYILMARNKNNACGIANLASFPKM
pIC50: −log10 of the molar value.
Note to self: values exactly at 9 are YES. So pIC50 at or above 9 is YES, below is NO.

N#CC1(NC(=O)[C@@H]2CCCC[C@H]2c2nn(CC(F)(F)F)cc2-c2ccc(N3CCS(=O)(=O)CC3)cc2)CC1 ... NO
N#CC1(NC(=O)[C@@H]2CCCC[C@H]2c2nn(-c3ccc(F)cc3)cc2-c2ccc(N3CCS(=O)(=O)CC3)cc2)CC1 ... YES
N#CC1(NC(=O)[C@@H]2CCCC[C@H]2c2nn(CC3CC3)cc2-c2ccc(N3CCS(=O)(=O)CC3)cc2)CC1 ... NO

Attention now turns to another entry.
Exercise: Reported pIC50 reaches at least 9 for N#CC1(NC(=O)[C@@H]2CCCC[C@H]2c2oc(-c3ccc(F)cc3)nc2-c2ccc(N3CCS(=O)(=O)CC3)cc2)CC1 ?
Key: YES

---

Test: Half life in rhesus monkey
Assay type: ADME, Macaca mulatta
Settings: in vivo
Measurement Label: half-life
Give the value; after it, write the unit.

Value of half-life reported for the molecule N#CC1(NC(=O)[C@@H]2CCCC[C@H]2c2oc(-c3ccc(F)cc3)nc2-c2ccc(N3CCS(=O)(=O)CC3)cc2)CC1 is 2.3 h

---

Experiment: Plasma concentration in dog at 15 mg/kg, po for 4 days
Type: ADME, organism-based, Canis lupus familiaris
Details: time 4 day
Measurement Label: concentration at 96 h (µM)
Your answer is read as µM, so omit the unit and give the number.

Value of concentration at 96 h reported for the compound N#CC1(NC(=O)[C@@H]2CCCC[C@H]2c2oc(-c3ccc(F)cc3)nc2-c2ccc(N3CCS(=O)(=O)CC3)cc2)CC1 is 3.98
